The reported numbers originate from ChEMBL document CHEMBL3988442.

Target: Arginase-2, mitochondrial (Homo sapiens)
Assay: in vitro enzyme assay to detect the production of urea directly proportional to the activity of Arginase II
Type: functional
Parameters: scale not given: in the data most compounds retested in dose-response had high values
Conditions: 33.3 µM
Quantity: Percent Effect (%)
Respond with the bare value in %.

| Compound | Percent Effect / % |
| --- | --- |
| COC(=O)C(C)(C)NC(=O)C1CC(=O)N(C)C1 (stereo unspecified) | -0.798 |
| NC(=O)C1CCN(Cn2nc(-c3ccc(F)cc3)oc2=O)CC1 | 4.14 |
| CO[C@@H]1CC[C@H]2[C@H]1OCCN2C(=O)C1=CCCC1 | 16.1 |
| O=C(CCCOc1ccc(F)cc1)N1CCCC(n2cccn2)C1 (stereo unspecified) | 2.74 |
| O=C(c1cccs1)N1CCC(Cn2nc(-c3ccco3)ccc2=O)CC1 | 3.02 |

Entry CC(O)CN1CCN(C(=O)c2cnn(-c3ccccc3F)c2)CC1 (stereo unspecified) — recorded Percent Effect = 15.6

Entry N#Cc1ccccc1N1CCCN(C(=O)CCn2cccn2)CC1 — recorded Percent Effect = -0.76

Entry CCNc1cc2c(nn1)CCN(C(=O)CC1CCCCC1)C2 — recorded Percent Effect = 3.04

Entry CC(Sc1nnnn1C1CCOCC1)C(=O)NC1CCCCC1 (stereo unspecified) — recorded Percent Effect = 3.65

Entry COCC(=O)N1CC[C@H]2C[C@@H](c3nnc(C4CC4)o3)O[C@@H]2C1 — recorded Percent Effect = -57.2

Entry COCC(O)CN(C)C(=O)NC1CCN(Cc2ccccn2)CC1 (stereo unspecified) — recorded Percent Effect = -2.85

###

Entries and their Percent Effect
Molecular target: Proteasome subunit beta (Trypanosoma cruzi)
Assay: Trypanosoma cruzi proteasome chymotrypsin-like activity (TcProtChymo) assay.
Assay type: functional
Design: scale not given: in the data most compounds retested in dose-response had high values
Settings: 9.37 µM
Respond with the bare value in %.

# count of solved cases: 10
| Compound | Experimental Result |
| --- | --- |
| COCC(=O)N1CCC(c2nc3ccc(N4CCCC4)cn3n2)CC1 | 10 |
| O=C(NCCNc1cnccn1)C1CCN(C(=O)N2CCCC2)CC1 | 15.6 |
| CSc1ncccc1C(=O)N1C[C@H]2CC[C@@H]1CN(c1ncccn1)C2 | 6.82 |
| CCOc1ccc(Cl)cc1CNCCCn1ccnc1 | 19 |
| COc1ccc2c(c1)C1(CCN(Cc3ccoc3)CC1)N(C)CC2 | 20 |
| Cc1noc([C@H]2C[C@@H]3CCN(C(=O)N(C)C)C[C@H]3O2)n1 | 15.5 |
| Cc1csc(N2CCN(CC(=O)Nc3nncs3)CC2C)n1 (stereo unspecified) | 5.92 |
| CCCS(=O)(=O)N1CCC2(CN(c3ccsc3)C(=O)CN2C)C1 (stereo unspecified) | 10.6 |
| Cc1csc2c(N3CCC(NCCCc4ccncc4)CC3)ncnc12 | 6.49 |
| CC(C)C(C(=O)N1CCN(Cc2ccncc2)CC1)n1cncn1 (stereo unspecified) | 3.83 |

Consider the record given below.
Entry Cc1ccc(=O)n(CC2(O)CCN(Cc3cnc(C)nc3)CC2)n1 — recorded Percent Effect = 11.9

###

Entries and their Percent Effect
Target: Proteasome subunit beta (Trypanosoma cruzi)
Test: Trypanosoma cruzi proteasome chymotrypsin-like activity (TcProtChymo) assay.
Type: functional
Parameters: scale not given: in the data most compounds retested in dose-response had high values
Conditions: 9.37 µM
Respond with the bare value in %.

| Compound | Quantity | Experimental Result |
| --- | --- | --- |
| CCN1CC(C(=O)N(C)Cc2ccon2)CC1=O (centres undefined) | Percent Effect | 7.47 |
| NC(=O)C1CCN(C(=O)CCn2ccc3cc(Br)ccc32)CC1 | Percent Effect | 2.63 |
| Cc1ccc(N2CCCN(C(=O)c3cc(Cl)c[nH]3)CC2)nn1 | Percent Effect | 9.33 |
| c1sc(C2CCCC2)nc1CN1CCn2c(nnc2C2CC2)C1 | Percent Effect | 10.4 |
| Cc1cnc(CN2CCOC(Cn3nc(C)nc3C)C2)cn1 (centres undefined) | Percent Effect | 15.8 |
| NS(=O)(=O)CCNC(=O)c1nnn(-c2ccccc2)c1C1CC1 | Percent Effect | 12.1 |
| CCc1ccc(CCC(=O)N2CCOCC2c2ncon2)cc1 (centres undefined) | Percent Effect | 3.05 |
| CCCc1ncc(C(=O)N2CCOC(c3nc(C)n[nH]3)C2)s1 (centres undefined) | Percent Effect | 5.66 |

Consider the record given below.
// returns Percent Effect for Cc1nn(C)cc1C(=O)Nc1cccc(CN2CCC(CO)CC2)c1 with Proteasome subunit beta (Trypanosoma cruzi); value = 8.53
